Assay: Equilibrium solubility in pH 1.2 and pH 6.8 solutions, 37 °C, 24 h, HPLC
Assay type: physicochemical
Conditions: pH 1.2 solution, 37 °C, 24 h, VPZ concentration by HPLC; read-out: Equilibrium Solubility after 24 h in pH 1.2
RECORDED ENDPOINT: solubility thermodynamic at 24 h

CNCc1cc(-c2ccccc2F)n(S(=O)(=O)c2cccnc2)c1.O=C(O)/C=C/C(=O)O [VPZ-FUM] :: 27.7 mg/mL

###

Examples of molecules with documented ΔpKa follow.
Experiment: pKa calculation with ChemAxon calculator and ΔpKa rule
Details: pKa (base) − pKa (acid); VPZ pKa = 9.4 versus calculated coformer pKa
RECORDED ENDPOINT: ΔpKa

NC(=O)C(=O)O :: 6.92
O=C(O)CCC(=O)O :: 5.54
Oc1cccc(O)c1O :: 0.3

###

Assay: pKa calculation with ChemAxon calculator and ΔpKa rule
Settings: pKa (base) − pKa (acid); VPZ pKa = 9.4 versus calculated coformer pKa
Examples of molecules with documented ΔpKa follow.
RECORDED ENDPOINT: ΔpKa

NC(N)=O [Urea] :: −6.9
NC(=O)c1ccncc1 [Isonicotinamide] :: −4.31
O=C1NS(=O)(=O)c2ccccc21 [saccharin] :: 7.46
NC(=O)c1cccnc1 [Nicotinamide] :: −3.99
O=C(O)c1ccc[nH]1 [Pyrrole-2-carboxylic acid] :: 5.78
Oc1ccc(O)cc1 [Hydroquinone] :: −0.58
O=C(O)c1ccc(O)cc1 [4-hydroxybenzoic acid] :: 5.02
Oc1cccc(O)c1 [Resorcinol] :: −0.17
NC(=O)CO [Glycolamide] :: −4.25
Cc1cc(O)ccc1O [Methyl-hydroquinone] :: −0.7
O=C1CC[C@@H](C(=O)O)N1 [Pyroglutamic acid] :: 5.79
NC(=O)c1ccccc1 [Benzamide] :: −5.16
Oc1ccccc1O [Pyrocatechol] :: −0.24

###

Experiment: Equilibrium solubility in pH 1.2 and pH 6.8 solutions, 37 °C, 24 h, HPLC
Format: physicochemical
Details: Figure 7a, pH 1.2 buffer; read-out: Solubility in pH 1.2 buffer, Concentration
RECORDED ENDPOINT: solubility at 24 h (mg/mL)

CNCc1cc(-c2ccccc2F)n(S(=O)(=O)c2cccnc2)c1.O=C(O)/C=C/C(=O)O [VPZ-FUM] :: 27.6

###

Assay: Equilibrium solubility in pH 1.2 and pH 6.8 solutions, 37 °C, 24 h, HPLC
Format: physicochemical
Settings: pH 6.8 solution, 37 °C, 24 h, VPZ concentration by HPLC; read-out: Equilibrium Solubility after 24 h in pH 6.8
Experimental: Excess amounts (~500 mg) of powder samples were added to 10 mL of pH 1.2 solution and 30 mL of pH 6.8 solution. […] After 24 h, aliquots of 2.5 mL were withdrawn from the suspension using a 0.45 μm nylon syringe filter and diluted immediately, followed by analysis of the VPZ concentration by HPLC. The VPZ concentration was measured using an HPLC system (UFLC; Shimadzu) with a diode array detector and Shim-pack GIS-ODS C18 column (4.6 × 250 mm, 5 μm). […]
RECORDED ENDPOINT: solubility thermodynamic at 24 h

CNCc1cc(-c2ccccc2F)n(S(=O)(=O)c2cccnc2)c1.O=C(O)/C=C/C(=O)O :: 3400 µg/mL
